Data origin: PubChem BioAssay AID493131

Each record here notes measured activation.
- TARGET OR SYSTEM: Protein FosB (Mus musculus) (UniProt P13346)
- Sequence (P13346 whole entry, looked up): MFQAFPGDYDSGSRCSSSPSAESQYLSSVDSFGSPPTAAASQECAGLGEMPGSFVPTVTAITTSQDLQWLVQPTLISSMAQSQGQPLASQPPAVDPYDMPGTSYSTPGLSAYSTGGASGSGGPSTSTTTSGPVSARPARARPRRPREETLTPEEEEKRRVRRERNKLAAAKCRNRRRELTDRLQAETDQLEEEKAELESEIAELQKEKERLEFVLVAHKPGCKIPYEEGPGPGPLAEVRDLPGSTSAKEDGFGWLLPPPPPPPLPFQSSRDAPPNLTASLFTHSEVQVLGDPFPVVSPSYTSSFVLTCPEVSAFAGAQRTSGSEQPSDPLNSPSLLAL
- PROCEDURE TEXT: activators of delta FosB homodimer, primary screen, biochemical, fluorescence polarization, TAMRA-CDK5 oligo, single point (AID 493131);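 note: fluorescence polarization rise as delta FosB binds a TAMRA Cdk5 AP-1 oligo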
- EXPERIMENTAL SETUP: purified delta FosB, at 25 µM, stronger effect = higher value, percent of positive-control signal above neutral wells
About 3,300 (0.97%) of roughly 340,000 compounds were called active. This excerpt belongs to a sample that is enriched for actives.

COMPOUND	activation, %
Cc1sc2nc(CSCC(=O)NC3CCCCC3)[nH]c(=O)c2c1C	-10.1
Cc1oc(CC(C)C)c(CN2CCCC2)c1C(=O)O	4.27
O=C(CN1CCN(c2ccc(Cl)cc2)CC1)c1ccccc1	1.64
Cc1ccc(NC(=O)COC(=O)CCc2nc3ccccc3n2-c2ccccc2)c(C)c1	-3.49
Cc1nn(CC(=O)N2CCCCC2)c(=O)c2nn(-c3ccccc3)c(C)c12	-5.62
Cc1nnc(NC(=O)c2ccc3nccnc3c2)s1	1.3
O=C(Cc1nc2ccccc2[nH]c1=O)c1ccc(Cl)cc1	25
CC(Oc1cccc(NC(=O)c2cccs2)c1)C(=O)c1ccccc1 (stereo not given)	-3.07
c1ccc(CN2CCC(N=C3NN=C(c4ccc5c(c4)OCCO5)CS3)CC2)cc1	18.3
CCN(C(=O)CSc1nc2ccccc2n1CC)C1CCS(=O)(=O)C1 (stereo not given)	-12.5
O=C(/C(=C/c1cccc(Cl)c1)c1nc2ccccc2[nH]1)c1ccccc1	0.879
O=C(Nn1cnc2ccccc2c1=O)c1ccc(F)cc1Cl	-11
COc1cc(NS(=O)(=O)c2ccc(NC(=O)c3ccc([N+](=O)[O-])cc3)cc2)ncn1	-0.999
Clc1ccc(-n2nnnc2-c2cnc(-c3ccccn3)nc2-c2cccs2)cc1	-8.45
CCC(C)NC(=O)c1ccc(NC(=O)CC2SC(N3CCCCC3)=NC2=O)cc1 (stereo not given)	-9.42
